assay: Mass balance studies after skin permeation of MTG gels; format: in vitro ADME, porcine; details: pig, 1% MTG gel with PG and BHT; read-out: Total percentage (mass balance recovery)
endpoint.name: recovery at 48 h, 1 %
Remember to put the unit after the number in your answer.

Exercise: I'd like to know its recovery at 48 h, 1 %. The molecule in question is "CC[C@@H]1CN2CCc3c([nH]c4cccc(OC)c34)[C@@H]2C[C@@H]1/C(=C\OC)C(=O)OC"
Key: 85.5%

###

Assay: In vitro skin permeation of 5%w/v MTG in single solvents (Franz diffusion cells), with infinite dose model fitting
Assay type: in vitro ADME, porcine
Details: pig, 5%w/v MTG in DMSO; receptor PBS with 0.01%w/v ascorbic acid (DMSO-AA); 48 h; read-out: Kp (permeability coefficient) (converted)
Experimental: The in vitro permeation study was performed in triplicate using Franz diffusion cell apparatus with a diffusion area of ~ 0.8 cm^2 and a receptor volume of ~ 3 mL. […] Samples were analysed using Shimadzu liquid chromatographic system (Kyoto, Japan) with SPD-20A UV–vis detector set at 254 nm. […] The permeability coefficient (Kp), steady-state flux (Jss) and lag time (tlag) can then be calculated using Eqs. […]
endpoint.name: Papp at 48 h, 5 %w/v (×10⁻⁶ cm/s)
Reply numerically in ×10⁻⁶ cm/s, unit not repeated.

Exercise: Please report the recorded Papp at 48 h, 5 %w/v for CC[C@@H]1CN2CCc3c([nH]c4cccc(OC)c34)[C@@H]2C[C@@H]1/C(=C\OC)C(=O)OC [MTG, mitragynine] .
Key: 0.00425

###

experiment: Mass balance studies after skin permeation of MTG gels; assay type: in vitro ADME, porcine; conditions: pig, 1% MTG gel with DMSO and BHT; read-out: Total percentage (mass balance recovery)
endpoint.name: recovery at 48 h, 1 % (%)
Report as a plain number; the unit % is understood.

Exercise: Which measured recovery at 48 h, 1 % value corresponds to CC[C@@H]1CN2CCc3c([nH]c4cccc(OC)c34)[C@@H]2C[C@@H]1/C(=C\OC)C(=O)OC [MTG, mitragynine] ?
Key: 81.3

###

assay: Mass balance studies after 48-h skin permeation of MTG in solvents; assay type: in vitro ADME, porcine; settings: pig, 5%w/v MTG in DMSO; receptor PBS with 0.01%w/v ascorbic acid (DMSO-AA); 48 h; read-out: Total percentage (mass balance recovery)
endpoint.name: recovery at 48 h, 5 %w/v
For clarity, give the value followed by its unit.

Exercise: Which value of recovery at 48 h, 5 %w/v has been reported for "CC[C@@H]1CN2CCc3c([nH]c4cccc(OC)c34)[C@@H]2C[C@@H]1/C(=C\OC)C(=O)OC" in the records?
Key: 50.7%

###

Assay: In vitro skin permeation of 5%w/v MTG in single solvents (Franz diffusion cells), with infinite dose model fitting
Format: in vitro ADME, porcine
Conditions: pig, 5%w/v MTG in Labrasol; receptor PBS with 0.01%w/v ascorbic acid (Labrasol-AA); 48 h; read-out: Kp (permeability coefficient) (converted)
Description: The in vitro permeation study was performed in triplicate using Franz diffusion cell apparatus with a diffusion area of ~ 0.8 cm^2 and a receptor volume of ~ 3 mL. […] Samples were analysed using Shimadzu liquid chromatographic system (Kyoto, Japan) with SPD-20A UV–vis detector set at 254 nm. […] The permeability coefficient (Kp), steady-state flux (Jss) and lag time (tlag) can then be calculated using Eqs. […]
endpoint.name: Papp at 48 h, 5 %w/v (×10⁻⁶ cm/s)
Give just the number in ×10⁻⁶ cm/s; leave the unit off.

Exercise: Any idea what Papp at 48 h, 5 %w/v was measured for "CC[C@@H]1CN2CCc3c([nH]c4cccc(OC)c34)[C@@H]2C[C@@H]1/C(=C\OC)C(=O)OC" ?
Key: 0.000775
